Where do these numbers come from? They come from patent US20240336596A1.

experiment: Pharmacokinetic study in mice (IV and oral gavage); assay type: in vivo, CD-1 mice; settings: mouse, plasma; IV 3 mg/kg, male CD-1 mice; read-out: CL(iv) (converted)
Here the recorded clearance is given for each entry.
// return numeric value only (unit: mL/min/kg, not printed)

{"molecule": "C[C@@H](COCCC(=O)N1CCN(c2ncc(C(F)(F)F)cn2)CC1)Nc1cn[nH]c(=O)c1C(F)(F)F [RBN-2397, reference compound]", "clearance, mL/min/kg": 68.3}
{"molecule": "C[C@@H](CONC(=O)CC1=CCN(c2ncc(C(F)(F)F)cn2)CC1)Nc1cn[nH]c(=O)c1C(F)(F)F [Example 25]", "clearance, mL/min/kg": 17.8}

--- query ---
For record C[C@@H](CONC(=O)CC1CCN(c2ncc(C(F)(F)F)cn2)CC1)Nc1cn[nH]c(=O)c1C(F)(F)F [Example 17] the listed clearance is 15.5
